Molecular target: Pro-Link-tagged Human GLP-1R (human) (UniProt P43220)
Sequence (P43220 24-463): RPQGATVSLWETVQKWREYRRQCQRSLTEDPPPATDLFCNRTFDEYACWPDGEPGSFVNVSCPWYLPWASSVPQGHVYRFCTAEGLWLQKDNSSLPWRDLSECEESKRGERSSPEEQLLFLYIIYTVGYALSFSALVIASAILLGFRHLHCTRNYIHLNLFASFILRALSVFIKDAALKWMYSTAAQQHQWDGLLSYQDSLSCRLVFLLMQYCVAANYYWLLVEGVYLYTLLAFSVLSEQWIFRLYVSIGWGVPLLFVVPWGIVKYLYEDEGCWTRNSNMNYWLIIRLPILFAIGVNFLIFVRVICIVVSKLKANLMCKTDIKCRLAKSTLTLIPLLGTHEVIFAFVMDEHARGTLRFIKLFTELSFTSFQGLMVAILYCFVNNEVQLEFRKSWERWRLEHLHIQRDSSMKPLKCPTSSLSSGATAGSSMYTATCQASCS
Assay: cell-based or functional assay
Starred links: 1 amine or outer side, 2 acyl side, 3 side chain; linkers in the order of their positions; H or OH if unused. Non-standard residues stand in square brackets, D forms with d. Groups on a side chain read outwards from the residue. No end group written: not given here. *: point of attachment. C20 diacid = O=C(O)CCCCCCCCCCCCCCCCCCC(=O)*; Phe(4-CN) = N#Cc1ccc(C[C@H](N)C(=O)O)cc1; αMePhe(2-F) = C[C@](N)(Cc1ccccc1F)C(=O)O; γGlu = O=C(O)[C@H](CCC(=O)[*:2])N[*:1]; αMeL = CC(C)C[C@](C)(N)C(=O)O; AEEA = NCCOCCOCC(=O)O; Aib = CC(C)(N)C(=O)O
Lab note: cut-off is 40%. Strictly less in % Stimulation Max is 1 (yes). Exactly 40% or more is 0 (no).

Check out these entries, answers already filled in.
Y[Aib]QGT[αMePhe(2-F)]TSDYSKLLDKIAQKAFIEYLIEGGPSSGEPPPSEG-NH2 (not fully specified (residue 20)) [Example 304]	0 (no)
YXQGTFTSDYSIXLDKKAAXAFIEYLLEGGPSSGEPPPSEG (synthetic construct; SITE 2: note = 2-Aminoisobutyric Acid; SITE 13: note = alpha-methyl-leucine; SITE 17: note = Lysine is chemically modified through conjugation of the epsilon-amino group of the Lysine side chain with (2-[2-(2-Amino-ethoxy)-ethoxy]-acetyl)2-(gamma-Glu)-CO-(CH2 )18-CO2H; SITE 20:) [Example 294]	1 (yes)
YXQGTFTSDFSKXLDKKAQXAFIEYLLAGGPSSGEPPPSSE (synthetic construct; SITE 2: note = 2-Aminoisobutyric Acid; SITE 13: note = alpha-methyl-leucine; SITE 17: note = Lysine is chemically modified through conjugation of the epsilon-amino group of the Lysine side chain with (2-[2-(2-Amino-ethoxy)-ethoxy]-acetyl)2-(gamma-Glu)-CO-(CH2 )18-CO2H; SITE 20:) [Example 5]	1 (yes)
Y[Aib]QGTFTSDYSI[αMeL]LDKIAAK([AEEA-AEEA-γGlu-C20 diacid])QFVQWLIE[Aib]GPSSGEPPPSEG-NH2 (ends and bridges not checked) [Example 323]	0 (no)
HXQGTXTSDYSILLDKKAAXAFIEYLIEAGPSSGEPPPSEG (synthetic construct; SITE 2: note = 2-Aminoisobutyric Acid; SITE 6: note = alpha-methyl-2-fluoro-L-phenylalanine; SITE 17: note = Lysine is chemically modified through conjugation of the epsilon-amino group of the Lysine side chain with (2-[2-(2-Amino-ethoxy)-ethoxy]-acetyl)-(gamma-Glu)-CO-(CH2) 18-) [Example 298]	0 (no)

Now let's try a different one.
hey, is % Stimulation Max for Y[Aib]QGT[αMePhe(2-F)]TSD[Phe(4-CN)]SILLDKQAQK([AEEA-AEEA-γGlu-C20 diacid])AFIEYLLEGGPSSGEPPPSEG-NH2 [Example 321] lower than 40% or not? 0 (no)
